# Test system: Gamma-crystallin C (Homo sapiens), P07315 [G129C]
# Sequence (P07315 whole entry G129C): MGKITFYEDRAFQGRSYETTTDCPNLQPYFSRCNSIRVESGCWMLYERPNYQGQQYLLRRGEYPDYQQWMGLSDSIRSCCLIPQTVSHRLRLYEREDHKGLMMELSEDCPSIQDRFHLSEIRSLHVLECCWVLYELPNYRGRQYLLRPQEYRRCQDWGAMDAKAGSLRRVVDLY
# assay-procedure: Inhibition of gamma-crystallin C G129C mutant (unknown origin)-induced cytotoxicity in human HLE-B3 cells assessed as increase in cell viability at 0.04 to 4 uM incubated for 12 hrs by CCK8 assay
# Assay type: cell-based
The source made the active and inactive calls. The rule behind the calls is not given here.
parameter: inhibition

smiles_string=C[C@H](CCCC(C)(C)O)[C@H]1CC[C@@]2(C)C3=C(CC[C@]12C)[C@@]1(C)CC[C@H](O)C(C)(C)[C@@H]1CC3 recorded_measurement=Active
smiles_string=C[C@H](CCCC(C)(C)O)[C@H]1CC[C@@]2(C)C3=CC[C@H]4C(C)(C)[C@@H](O)CC[C@]4(C)C3=CC[C@]12C recorded_measurement=Active
smiles_string=C[C@H](CCCC(C)(C)O)[C@H]1CC[C@@]2(C)C3=C(CC[C@]12C)[C@@]1(C)C[C@@H](F)[C@H](O)C(C)(C)[C@@H]1CC3 recorded_measurement=Active
